Recorded pIC50, one value per entry.
assay target: Amine oxidase [copper-containing] 3 (Homo sapiens)
Sequence (Q16853 whole entry): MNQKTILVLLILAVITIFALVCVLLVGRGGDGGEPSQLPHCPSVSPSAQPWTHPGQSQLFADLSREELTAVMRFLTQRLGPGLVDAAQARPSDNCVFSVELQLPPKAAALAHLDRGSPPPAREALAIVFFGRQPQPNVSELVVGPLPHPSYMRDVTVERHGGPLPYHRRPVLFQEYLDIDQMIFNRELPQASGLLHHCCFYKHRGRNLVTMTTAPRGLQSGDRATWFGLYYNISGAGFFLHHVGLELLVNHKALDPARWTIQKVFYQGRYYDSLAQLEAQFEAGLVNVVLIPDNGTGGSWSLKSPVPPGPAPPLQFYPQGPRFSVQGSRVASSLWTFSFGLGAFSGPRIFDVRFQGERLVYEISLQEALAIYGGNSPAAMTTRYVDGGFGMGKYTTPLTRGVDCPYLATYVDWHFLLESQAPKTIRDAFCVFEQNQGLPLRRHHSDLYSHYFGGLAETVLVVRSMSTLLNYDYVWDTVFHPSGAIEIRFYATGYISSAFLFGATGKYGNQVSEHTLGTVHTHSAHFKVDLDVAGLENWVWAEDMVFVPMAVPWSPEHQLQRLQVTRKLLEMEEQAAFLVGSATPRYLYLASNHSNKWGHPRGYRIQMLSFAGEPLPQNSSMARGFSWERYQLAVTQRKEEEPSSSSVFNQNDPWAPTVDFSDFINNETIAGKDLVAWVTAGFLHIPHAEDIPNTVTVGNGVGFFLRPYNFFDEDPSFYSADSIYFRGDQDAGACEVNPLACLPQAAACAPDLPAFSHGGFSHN
assay protocol: Inhibition of human VAP1 expressed in CHO cells using [14C]-benzylamine as substrate incubated for 30 mins prior to substrate addition measured after 1 hr by scintillation spectrophotometric analysis
In textbook form, pIC50 equals minus log to base ten of the concentration in mol/L.

A selection of reference data follows.
CC(=O)Nc1nc(CCc2ccc(NC=N)cc2)cs1 | 6.14
CC(=O)Nc1cccc(CCc2ccc(NC(=N)N)cc2)c1 | 4.82
CC(=O)Nc1ncc(CCc2ccc(NC(=N)N)cc2)s1 | 5.02
N=C(N)Nc1ccc(CCc2csc(N)n2)cc1 | 4.66

Identify the measured pIC50 of CC(=O)Nc1nc(CCc2ccc(NC(=N)N)cc2)cs1 for Amine oxidase [copper-containing] 3 (Homo sapiens).
6.64

Checklist item: pIC50 tested on Amine oxidase [copper-containing] 3 (Homo sapiens), entry CCNC(=N)Nc1ccc(CCc2csc(NC(C)=O)n2)cc1 , value?
6.17

Quick check: pIC50 on Amine oxidase [copper-containing] 3 (Homo sapiens), item CC(=O)Nc1nc(CCCc2ccc(NC(=N)N)cc2)cs1 ?
5.06

Amine oxidase [copper-containing] 3 (Homo sapiens) / pIC50 / CC(=O)Nc1nc(Cc2ccc(NC(=N)N)cc2)cs1 : value?
4.38

API: value(readout=pIC50, system=Amine oxidase [copper-containing] 3 (Homo sapiens)) for record CC(=O)Nc1ccc(CCc2ccc(NC(=N)N)cc2)cc1
4.74

Param readout = pIC50; param system = Amine oxidase [copper-containing] 3 (Homo sapiens); param query = CC(=O)Nc1nc(CCc2ccc(NC3=NCCN3)cc2)cs1 ; response: value
5.52

Query the reported pIC50 for Amine oxidase [copper-containing] 3 (Homo sapiens); item: CC(=O)Nc1nc(CCc2ccc(CCN)cc2)cs1
5.30
